Recorded IC50 by entry
target: BCL-2 (Homo sapiens (Human)); experiment: Protein-protein interaction assay BCL-2/Bad BH3 peptide (BCL-2 assay, TR-FRET); format: binding; conditions: His-BCL-2 / Bad BH3 peptide, median
Sequence (P10415 other isoform, or with tags, fused parts or gaps): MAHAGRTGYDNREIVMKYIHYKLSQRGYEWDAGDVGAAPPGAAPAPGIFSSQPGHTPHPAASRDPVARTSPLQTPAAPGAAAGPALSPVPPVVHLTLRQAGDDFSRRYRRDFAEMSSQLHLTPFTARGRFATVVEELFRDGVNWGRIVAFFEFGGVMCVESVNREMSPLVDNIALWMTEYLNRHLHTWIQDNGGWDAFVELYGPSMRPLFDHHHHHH
PROPERTY: IC50

molecule="CCc1c2c(nn1C)C(C)N(C)S(=O)(=O)CCCn1c(C(=O)O)c(CCCOc3cccc4ccccc34)c3cccc-2c31 (racemic)" property=IC50 result="> 20 µM"
molecule="CCc1c2c(nn1C)CN(CCCN1CCCC1=O)S(=O)(=O)CCCn1c(C(=O)O)c(CCCOc3cccc4ccccc34)c3cccc-2c31 (racemic)" property=IC50 result="> 20 µM"
molecule="CCc1c2c(nn1C)CN(C)S(=O)(=O)CCCn1c(C(=O)O)c(CCCOc3ccc(F)c4ccccc34)c3ccc(F)c-2c31 (racemic)" property=IC50 result="> 20 µM"

====

target: BCL-XL (Homo sapiens (Human), UniProt Q07817); assay: Protein-protein interaction assay BCL-XL/Bad BH3 peptide (BCL-XL assay, TR-FRET); assay type: binding; conditions: His-BCL-XL / Bad BH3 peptide, median
Sequence (Q07817 other isoform, or with tags, fused parts or gaps): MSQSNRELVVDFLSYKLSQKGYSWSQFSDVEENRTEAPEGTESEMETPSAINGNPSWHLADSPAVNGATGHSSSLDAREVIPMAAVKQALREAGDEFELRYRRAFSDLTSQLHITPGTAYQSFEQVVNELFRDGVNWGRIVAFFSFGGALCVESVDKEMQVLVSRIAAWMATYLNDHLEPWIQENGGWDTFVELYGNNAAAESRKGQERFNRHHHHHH
PROPERTY: IC50

molecule="Cc1c2c(nn1C)CN(C)S(=O)(=O)CCCn1c(C(=O)O)c(CCCOc3cccc4cc(F)ccc34)c3ccc(F)c-2c31 (racemic) [Example 25]" property=IC50 result="> 20 µM"
molecule="CCc1c2c(nn1C)CN(C)S(=O)(=O)CCCn1c(C(=O)O)c(CCCOc3cccc4cc(F)ccc34)c3ccc(F)c-2c31 (single isomer, unassigned; enantiomer 1) [Example 8]" property=IC50 result="> 20 µM"
molecule="Cc1c2c(nn1C)C(CCN1CCOCC1)N(C)S(=O)(=O)CCCn1c(C(=O)O)c(CCCOc3cccc4ccccc34)c3cccc-2c31 (racemic) [Example 44]" property=IC50 result="> 20 µM"

====

target: MCL-1 (Homo sapiens (Human), UniProt Q07820, K194A/K197A/R201A); test: Protein-protein interaction assay MCL-1/Noxa BH3 peptide (MCL-1 assay, TR-FRET); assay type: binding; details: MBP-MCL-1 / Noxa BH3 peptide, median
Sequence (Q07820 whole entry K194A/K197A/R201A, looked up): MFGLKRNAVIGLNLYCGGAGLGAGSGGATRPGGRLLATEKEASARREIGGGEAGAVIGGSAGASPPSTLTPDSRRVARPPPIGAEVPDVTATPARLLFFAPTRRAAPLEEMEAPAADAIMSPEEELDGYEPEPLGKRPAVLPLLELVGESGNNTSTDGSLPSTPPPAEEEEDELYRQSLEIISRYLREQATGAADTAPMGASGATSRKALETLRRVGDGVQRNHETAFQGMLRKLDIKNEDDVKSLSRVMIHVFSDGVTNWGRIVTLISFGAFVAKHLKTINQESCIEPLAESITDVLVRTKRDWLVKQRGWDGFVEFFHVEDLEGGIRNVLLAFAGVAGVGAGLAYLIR
Parameter: IC50. Scope: all listed entries.
PROPERTY: IC50 (nM)

molecule="CCc1c2c(nn1C)C(CCC1CCOCC1)N(C)S(=O)(=O)CCCn1c(C(=O)O)c(CCCOc3cccc4cc(F)ccc34)c3ccc(Cl)c-2c31 (single isomer, unassigned; enantiomer 2) [Example 62]" readout_number=110
molecule="CCc1c2c(nn1C)CN(C)S(=O)(=O)CCCn1c(C(=O)O)c(CCCOc3cccc4c3CCC4)c3ccc(F)c-2c31 (racemic) [Example 32]" readout_number=1.5
molecule="CCc1c2c(nn1C)CN(C1CC1)S(=O)(=O)CCCn1c(C(=O)O)c(CCCOc3cccc4cc(F)ccc34)c3ccc(Cl)c-2c31 (racemic) [Example 53]" readout_number=1.7

====

Molecular target: BCL-XL (Homo sapiens (Human))
Experiment: Protein-protein interaction assay BCL-XL/Bad BH3 peptide (BCL-XL assay, TR-FRET)
Assay type: binding
Settings: His-BCL-XL / Bad BH3 peptide, median
Experimental: Assay 2 Protein-Protein Interaction Assay: BCL-XL/Bad BH3 Peptide (BCL-XL Assay) The dose-dependent inhibition by the compounds described in this invention of the interaction between BCL-XL and the BH3 domain of Bad (both human) was determined using a steady state binding competition assay with time-resolved fluorescence energy transfer (TR-FRET) readout. […]
PROPERTY: IC50

compound=CCc1c2c(nn1C)CN(C)S(=O)(=O)CCCn1c(C(=O)O)c(CCCOc3cccc4c3CCCC4)c3ccc(Cl)c-2c31 property=IC50 result="> 20 µM"
compound="CCc1c2c(nn1C)CN(C1CC1)S(=O)(=O)CCCn1c(C(=O)O)c(CCCOc3cccc4cc(F)ccc34)c3ccc(Cl)c-2c31 (racemic)" property=IC50 result="16 µM"
compound="Cc1c2c(nn1C)CN(C)S(=O)(=O)CCCn1c(C(=O)O)c(CCCOc3cccc4cc(F)ccc34)c3ccc(F)c-2c31 (single isomer, unassigned; enantiomer 2) [Example 39]" property=IC50 result="> 20 µM"
compound="CCc1c2c(nn1C)C(CCC1CCOCC1)N(C)S(=O)(=O)CCCn1c(C(=O)O)c(CCCOc3cccc4cc(F)ccc34)c3ccc(Cl)c-2c31 (single isomer, unassigned; enantiomer 4) [Example 64]" property=IC50 result="> 20 µM"
compound=CCc1c2c(nn1C)CN(C)S(=O)(=O)CCCn1c(C(=O)O)c(CCCOc3cccc4c3CCC4)c3ccc(Cl)c-2c31 property=IC50 result="> 20 µM"
compound="CCc1c2c(nn1C)C(CCC1CCOCC1)N(C)S(=O)(=O)CCCn1c(C(=O)O)c(CCCOc3cccc4cc(F)ccc34)c3ccc(Cl)c-2c31 (racemic) [Example 60]" property=IC50 result="> 20 µM"
compound="CCc1c2c(nn1C)CN(C)S(=O)(=O)CCCn1c(C(=O)O)c(CCCOc3cccc4cc(F)ccc34)c3ccc(Cl)c-2c31 (single isomer, unassigned; enantiomer 2) [Example 37]" property=IC50 result="18 µM"

Where these numbers come from: patent US11401278B2
